Exercise: for every item that follows, state its recorded microsomal CLint at 2 µM.
- assay-details: Mouse liver microsome assay (metabolic stability)
- Format: in vitro ADME
- condition: mouse liver microsomes, in vitro intrinsic clearance; read-out: Relative Clint

compound	microsomal CLint at 2 µM
Cc1n[nH]c2c1C(c1cc(C#CC3(C)CN(C(=O)OC(C)(C)C)C3)cc(CO)c1)(C(C)C)C(C#N)=C(N)O2 (stereo not drawn)	> 250 µL/min/mg
[2H]C([2H])(O)c1cc(C#CC2CN(C(=O)OC(C)(C)C)C2)cc(C2(C(C)C)C(C#N)=C(N)Oc3[nH]nc(C)c32)c1 (stereo not drawn)	70 to 100 µL/min/mg
Cc1n[nH]c2c1[C@](c1cc(C#CC3(C(F)(F)F)CN(C(=O)OC(C)(C)C)C3)cc(CO)c1)(C(C)C)C(C#N)=C(N)O2	≤ 70 µL/min/mg
Cc1n[nH]c2c1C(c1cc(C#C[C@H]3C[C@@H](C(C)(C)O)C3)cc(C(C)(C)O)c1)(C(C)C)C(C#N)=C(N)O2 (stereo partly drawn)	> 250 µL/min/mg
Cc1n[nH]c2c1C(c1cc(C#C[C@H]3C[C@H](C(C)(C)O)C3)cc(CO)c1)(C(C)C)C(C#N)=C(N)O2 (stereo partly drawn)	> 250 µL/min/mg

Q. Entry Cc1n[nH]c2c1C(c1cc(C#C[C@@H]3C[C@H]3CO)cc(CO)c1)(C(C)C)C(C#N)=C(N)O2 (stereo partly drawn) has what microsomal CLint at 2 µM?
A. ≤ 70 µL/min/mg
